Values were extracted from the supplement of paper PMC10567573.

Examples of variants with documented protein stability index follow.
B1: TNNI2 (parent)
chain: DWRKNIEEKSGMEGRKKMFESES

- Variants of: B1
- PROTOCOL_DESCRIPTION: protein stability index of a GFP-peptide fusion (GPS, HEK-293T) (PSI 1-6); higher = more stable;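 note: lentivirally expressed fusions sorted by FACS into six bins by GFP to DsRed ratio, PSI derived from sequencing read proportions per bin multiplied by bin number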
- CONDITION: c terminus: native

SEQUENCE_ENTRY	protein stability index
DWRKNIEETSGMEGRKKMFESES [K9T]	2.54
DWRKNIEEKSNMEGRKKMFESES [G11N]	1.94
DWRKVIEEKSGMEGRKKMFESES [N5V]	2.04
DWRKNIEEKSGMEGRKKWFESES [M18W]	1.66
DWRKNIEEKEGMEGRKKMFESES [S10E]	2.28
DMRKNIEEKSGMEGRKKMFESES [W2M]	3.08
DWRKNIEEKKGMEGRKKMFESES [S10K]	2.18
DWRKNIEEKSGMEGRKKMFELES [S21L]	3.92
DWRKNIEEKSGMEGRKDMFESES [K17D]	2.83
DWRKNINEKSGMEGRKKMFESES [E7N]	2.79
DWRKNVEEKSGMEGRKKMFESES [I6V]	2.09
